Biological target: T1, Recombinant GST-NEMO (NEMO(1-196)) (UniProt Q9Y6K9 1-196, biotinylated in the library screen)
T1 construct: range 1-196; Expressed in E. coli BL21(DE3); also called NF-κB essential modulator; IKKγ; not shown: glutathione S-transferase (GST) tag encoded by the pGEX4T3 vector
T1 sequence (Q9Y6K9 1-196): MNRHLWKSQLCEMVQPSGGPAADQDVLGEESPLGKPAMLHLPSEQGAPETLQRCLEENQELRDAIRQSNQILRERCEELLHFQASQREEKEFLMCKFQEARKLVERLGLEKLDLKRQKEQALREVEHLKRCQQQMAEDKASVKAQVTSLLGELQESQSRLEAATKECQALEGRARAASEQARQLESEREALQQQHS
Experiment: HTRF competition, GST-NEMO + biotin-IKKβKK/RR(701-745), peptide 0-100 µM
Numbered stars: 1 amine (or outer) side, 2 acyl side, 3 side chain; on linkers, the order of the positions; unused ones are H or OH. Bridge positions count the residues as written; N and C are the ends. Square brackets hold non-standard residues; d marks the D form. Ends that are not written are not given here. Trimesoyl = O=C(c1cc(C(=O)[*:2])cc(C(=O)[*:3])c1)[*:1]; 2Nal = N[C@@H](Cc1ccc2ccccc2c1)C(=O)O; Dap = NC[C@H](N)C(=O)O; βAla = NCCC(=O)O
# pIC50 listing for each entry below
API: returns pIC50 as number; meaning -log10 of concentration in mol/L.

# Binder, pIC50
data = [
    ("GWIY[Dap]F[2Nal]RRR[Dap][dR][βAla]K (linker N-5-11 via Trimesoyl; not fully specified (N-terminus); printed as Tm(GWIY)Δ(FΦRRRA)-rBK, Bicyclic peptide; D-arginine outside the B ring) [peptide 5]", 5.89),
    ("GWIY[Dap]F[2Nal]R[dR]R[Dap][βAla][βAla]K (linker (positions not given here) via trimesic acid; not fully specified (bridges); printed as Tm(GWIY)Δ(FΦRrRΔ)-BBK) [peptide 6]", 5.23),
    ("GWAYA[Dap]F[2Nal]R[dR]R[Dap][βAla][βAla]K (linker (positions not given here) via trimesic acid; not fully specified (bridges); printed as Tm(GWAYA)Δ(FΦRrRΔ)-BBK) [peptide 13]", 5.77),
    ("GAIYA[Dap]F[2Nal]R[dR]R[Dap][βAla][βAla]K (linker (positions not given here) via trimesic acid; not fully specified (bridges); printed as Tm(GAIYA)Δ(FΦRrRΔ)-BBK) [peptide 12]", 5.52),
    ("GWIY[dA][Dap]F[2Nal]R[dR]R[Dap][βAla][βAla]K (linker N-6-12 via Trimesoyl) [peptide 8]", 5.54),
]

// next entry
pIC50 recorded for this binder, [dA]GWIY[Dap]F[2Nal]R[dR]R[Dap][βAla][βAla]K (linker (positions not given here) via trimesic acid; not fully specified (bridges); printed as Tm(aGWIY)Δ(FΦRrRΔ)-BBK) [peptide 10] , is 5.64
